assay: Stability in Swiss Webster mouse serum assessed as functional compound remaining after 6 hrs; format: ADME, cell-free; conditions: read-out: Stability
REPORTED_PROPERTY: remaining at 6 h (%)

test_smiles=CC[C@H](C)[C@@H]1NC(=O)[C@H](Cc2ccc(O)cc2)NC(=O)[C@H](Cc2cnc[nH]2)NC(=O)[C@@H](NC(=O)[C@@H](NC(=O)[C@H](CCC(=O)O)NC(=O)[C@H](Cc2ccccc2)NC(C)=O)C(C)C)CSSC[C@@H](C(=O)N[C@@H](C(=O)N[C@H](CCCN=C(N)N)C(=O)N[C@H](Cc2ccc(O)cc2)C(N)=O)[C@@H](C)O)NC(=O)[C@H](Cc2cnc[nH]2)NC(=O)[C@@H]2CCCN2C(=O)[C@H](CC(C)C)NC(=O)[C@H](CCCCNC(=O)COCC(=O)Nc2ccc(CCC(=O)N3CCC3=O)cc2)NC1=O meas_value=23

---

target: UniProtKB P49763; assay: Inhibition of human PlGF-1-VEGFR-1 interaction by ELISA
Sequence (P49763 whole entry): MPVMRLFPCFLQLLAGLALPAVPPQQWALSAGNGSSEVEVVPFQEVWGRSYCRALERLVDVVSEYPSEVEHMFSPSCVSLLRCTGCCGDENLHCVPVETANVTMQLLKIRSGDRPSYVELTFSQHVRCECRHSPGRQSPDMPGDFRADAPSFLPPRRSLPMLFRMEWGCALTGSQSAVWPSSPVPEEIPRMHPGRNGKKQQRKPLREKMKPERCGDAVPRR
Bridge positions count the residues as written; N and C are the ends. Square brackets hold non-standard residues; d marks the D form. Peptide text beside a SMILES is read from it. Aad = N[C@@H](CCCC(=O)O)C(=O)O
// reported IC50 for each item listed
REPORTED_PROPERTY: IC50 (nM)

compound="CSCC[C@H](NC(=O)[C@@H](NC(=O)[C@H](CCCCN)NC(=O)[C@@H]1CSSC[C@H](NC(=O)[C@@H](NC(=O)[C@H](CC(=O)O)NC(=O)[C@H](Cc2ccccc2)NC(C)=O)C(C)C)C(=O)N[C@@H](CC(N)=O)C(=O)N[C@@H](Cc2c[nH]c3ccccc23)C(=O)N[C@@H](C(C)C)C(=O)N[C@@H]([C@@H](C)O)C(=O)N[C@@H](CC(C)C)C(=O)N2CCC[C@H]2C(=O)N[C@@H](Cc2cnc[nH]2)C(=O)N1)C(C)C)C(N)=O (Ac-FDVCNWVTLPHCKVM-NH2; disulfide 4-12)" assayed_system="UniProtKB P49763" meas_value=1000
compound="CSCC[C@H](NC(=O)[C@H](CCCCN)NC(=O)[C@@H]1CSSC[C@H](NC(=O)[C@@H](NC(=O)[C@H](CC(=O)O)NC(=O)[C@H](Cc2ccccc2)NC(C)=O)C(C)C)C(=O)N[C@@H](CCCCN)C(=O)N[C@@H](Cc2c[nH]c3ccccc23)C(=O)N[C@@H](C(C)C)C(=O)N[C@@H]([C@@H](C)O)C(=O)N[C@@H](CC(C)C)C(=O)N2CCC[C@H]2C(=O)N[C@@H](Cc2cnc[nH]2)C(=O)N1)C(=O)N[C@@H](CCCC(N)=O)C(N)=O (Ac-FDVCKWVTLPHCKM[Aad](NH2)-NH2; disulfide 4-12)" assayed_system="UniProtKB P49763" meas_value=1000
compound="CSCC[C@H](NC(=O)[C@H](Cc1ccccc1)NC(C)=O)C(=O)N[C@H](C(=O)N[C@H]1CSSC[C@@H](C(=O)N2CCC[C@H]2C(=O)N[C@@H](CCSC)C(=O)N[C@@H](CCC(N)=O)C(N)=O)NC(=O)[C@H](Cc2c[nH]c3ccccc23)NC(=O)[C@@H]2CCCN2C(=O)[C@H](CC(C)C)NC(=O)[C@H]([C@@H](C)O)NC(=O)[C@H](C(C)C)NC(=O)[C@H](Cc2ccc(O)cc2)NC(=O)[C@H](CC(N)=O)NC1=O)C(C)C (Ac-FMVCNYVTLPWCPMQ-NH2; disulfide 4-12)" assayed_system="UniProtKB P49763" meas_value=19000
compound="CSCC[C@H](NC(=O)[C@@H](NC(=O)[C@H](CCCN=C(N)N)NC(=O)[C@@H]1CSSC[C@H](NC(=O)[C@@H](NC(=O)[C@H](CC(=O)O)NC(=O)[C@H](Cc2ccccc2)NC(C)=O)C(C)C)C(=O)N[C@@H](CC(N)=O)C(=O)N[C@@H](Cc2c[nH]c3ccccc23)C(=O)N[C@@H](C(C)C)C(=O)NCC(=O)N[C@@H](CC(C)C)C(=O)N[C@@H](C)C(=O)N[C@@H](Cc2cnc[nH]2)C(=O)N1)C(C)C)C(N)=O (Ac-FDVCNWVGLAHCRVM-NH2; disulfide 4-12)" assayed_system="UniProtKB P49763" meas_value=5000
